Give apparent KD of MS2 coat protein for every item shown.
Tested on: MS2 coat protein
Run description: apparent KD of MS2 coat protein; designed switch direction (-1 OFF switch, 1 ON switch): -1; higher = weaker reporter binding
Test parameters: Eterna round: R95; input ligand: none
Answers are plain numbers, in nM.

Answered cases to consult:
| Sequence entry | Measured result |
| --- | --- |
| UAGAAACAUGAGGAUCACCCAUGUGAGGAUAUGAAAAAGAAAAGAAAAGAAAGAAGAAUCAGAAGGCACAAAGG [salish99-ex1_r3_082] (puzzle: Exclusion 1) | 28.7 |
| GAAUAGGUAGGAUAUACGAAAAAAAAGGGUAGAAAAAAAACACAUGAGGAUCACCCAUGUAGAAGGACCAAAAG [salish99_ex2_r3_089] (puzzle: Exclusion 2) | 29.6 |
| AAGUAUAGAGGAUAUAGUGAGUACUACAUGAGGAUCACCCAUGUUCUUCAUUACGUAUUUCUAGAAGGCUGAUAAA [EX-5 Malc#24] (puzzle: Exclusion 5) | 289 |
| AGAAGUAGAAACCGAUCCUACAUGAGGAUCACCCAUGUAGCAAGACGUGCACGCGAAGCUCGUCAGACUACCAGAAG [salish99_TOv1_r3_001] (puzzle: Sensor v3, turn-off variant 1) | 685 |
| AAUAAAACAUAGGAUAUCGAAUUUAUUAUUUAACGAGAAGGAUGAACAUGAGGAUCACCCAUGUGGUAUCAUGG [Mat - Exclusion 6 - JL Mod - D24] (puzzle: Exclusion 6) | 207 |
| AGAUGUAGAUACCGAUCCUACAUGAGGAUCACCCAUGUAGCUAGACGUGCGGGCGGCGCUCGUCAGACUACCAGUAG [salish99_TOv1_r3_094] (puzzle: Sensor v3, turn-off variant 1) | 371 |

Could you report apparent KD of MS2 coat protein for every entry in the following list?
1. GAUUAUGCGAGCUUUAGGGACAUGAGGAUCACCCAUGUUCGUCUUAUUGAUCUAGGUGCACUAACAUACCUAAAUCU [JMF 34] (puzzle: Sensor v3, turn-off variant 1)
2. AGAAAUGCCCAUGGCCGCAAGCCUUUUGCUUGUCUUACCACAUGAGGAUCACCCAUGUGACAUGGGCUCCUUAUAAU [Verileve] (puzzle: Sensor v3, turn-off variant 2)
3. AAAAUACAAGCAAGAUCCUACAUGAGGAUCACCCAUGUGCUCGUCUUAUAAAGUACUAUCACGAAAGUGAUAGUACA [Mat - Sensor v3 - turn-off var 1 - Eli Mod - D59] (puzzle: Sensor v3, turn-off variant 1)
4. AAGAAACAUGAGGAUCACCCAUGUGAGGAUAUGAUGAGUAUUAUGUAUGUAGUAUGAAUCAGAAGGCACAAAGG [Mat - Mod Mix D40] (puzzle: Exclusion 1)

[A]
1. 27.7
2. 12.5
3. 415
4. 158
